- assayName: in vivo
- testContext: male, Sprague-Dawley, rat, po, 10 g/kg
propertyLabel: AUC(0-inf) (ng·h/mL)

INSERT INTO results (molecule, endpointvalue) VALUES
  ('O=C(O)c1cc(O)c(O)c(O)c1 [Gallic acid, gallic acid]', 16000);

---

Measured concentration after storage listing for selected compounds.
- assayName: Stability of QC samples of the analytes in rat plasma under storage conditions
- Format: physicochemical
- testContext: spiked 8,000 ng/mL, autosampler for 12 h, n = 6
- Protocol: Preparation of quality control (QC) samples with three concentrations (low, medium, and high) of 16, 160, and 3,200 ng/ml for ellagic acid; 1.6, 16, 320 ng/ml for protocatechuic acid, ethyl gallate and 1,2,3,4,6-O-pentagalloylglucose; 40, 400 and 8,000 ng/ml for chebulic acid, gallic acid, corilagin and chebulinic acid and 160, 1,600, 32000 ng/ml for chebulagic acid. Both QC samples and stock solutions were stored in a refrigerator at 4°C. […]
propertyLabel: Measured concentration after storage

INSERT INTO assay_data (compound, endpointvalue) VALUES
  ('O=C(O)C[C@H](C(=O)O)[C@H]1c2c(cc(O)c(O)c2O)C(=O)O[C@@H]1C(=O)O [Chebulic acid, chebulic acid]', '8,230.9 ± 726.4 ng/mL'),
  ('O=C(O)c1cc(O)c(O)c(O)c1 [Gallic acid, gallic acid]', '8,051.6 ± 602.3 ng/mL'),
  ('O=C(O[C@@H]1O[C@@H]2COC(=O)c3cc(O)c(O)c(O)c3-c3c(cc(O)c(O)c3O)C(=O)O[C@H]([C@H]1O)[C@@H]2O)c1cc(O)c(O)c(O)c1 [Corilagin, corilagin]', '7,335.4 ± 704.5 ng/mL'),
  ('O=C(O)C[C@@H]1C(=O)O[C@H]2[C@H](OC(=O)c3cc(O)c(O)c(O)c3)[C@@H](OC(=O)c3cc(O)c(O)c4c3[C@H]1[C@H](O)C(=O)O4)[C@H](OC(=O)c1cc(O)c(O)c(O)c1)O[C@@H]2COC(=O)c1cc(O)c(O)c(O)c1 [Chebulinic acid, chebulinic acid]', '7,174.2 ± 321.2 ng/mL');

---

- assayName: Pharmacokinetic study in rats after oral administration of TC extracts (UPLC-MS/MS of plasma)
- testContext: male, Sprague-Dawley, rat, plasma, po, 10 g/kg
propertyLabel: half-life (h)

INSERT INTO results (compound, propertylabel, endpointvalue) VALUES
  ('CCOC(=O)c1cc(O)c(O)c(O)c1 [Ethyl gallate, ethyl gallate]', 'half-life', 2.08),
  ('O=C(O)c1ccc(O)c(O)c1', 'half-life', 2.06),
  ('O=c1oc2c(O)c(O)cc3c(=O)oc4c(O)c(O)cc1c4c23', 'half-life', 8.23),
  ('O=C(O[C@@H]1O[C@@H]2COC(=O)c3cc(O)c(O)c(O)c3-c3c(cc(O)c(O)c3O)C(=O)O[C@H]([C@H]1O)[C@@H]2O)c1cc(O)c(O)c(O)c1', 'half-life', 26.4),
  ('O=C(O)C[C@@H]1C(=O)O[C@H]2[C@H](OC(=O)c3cc(O)c(O)c(O)c3)[C@@H](OC(=O)c3cc(O)c(O)c4c3[C@H]1[C@H](O)C(=O)O4)[C@H](OC(=O)c1cc(O)c(O)c(O)c1)O[C@@H]2COC(=O)c1cc(O)c(O)c(O)c1', 'half-life', 43.3),
  ('O=C(O)C[C@@H]1C(=O)O[C@H]2[C@@H]3OC(=O)c4cc(O)c(O)c(O)c4-c4c(cc(O)c(O)c4O)C(=O)OC[C@H]2O[C@@H](OC(=O)c2cc(O)c(O)c(O)c2)[C@@H]3OC(=O)c2cc(O)c(O)c3c2[C@H]1[C@H](O)C(=O)O3', 'half-life', 20);

---

- assayName: Stability of QC samples of the analytes in rat plasma under storage conditions
- Type: physicochemical
- testContext: spiked 400 ng/mL, three freeze-thaw cycles, n = 6
Measured concentration after storage listing for selected compounds.
propertyLabel: Measured concentration after storage (ng/mL)

INSERT INTO results (samplesmiles, propertylabel, endpointvalue) VALUES
  ('O=C(O[C@@H]1O[C@@H]2COC(=O)c3cc(O)c(O)c(O)c3-c3c(cc(O)c(O)c3O)C(=O)O[C@H]([C@H]1O)[C@@H]2O)c1cc(O)c(O)c(O)c1', 'Measured concentration after storage', 405.3),
  ('O=C(O)C[C@@H]1C(=O)O[C@H]2[C@H](OC(=O)c3cc(O)c(O)c(O)c3)[C@@H](OC(=O)c3cc(O)c(O)c4c3[C@H]1[C@H](O)C(=O)O4)[C@H](OC(=O)c1cc(O)c(O)c(O)c1)O[C@@H]2COC(=O)c1cc(O)c(O)c(O)c1', 'Measured concentration after storage', 378.1),
  ('O=C(O)C[C@H](C(=O)O)[C@H]1c2c(cc(O)c(O)c2O)C(=O)O[C@@H]1C(=O)O', 'Measured concentration after storage', 398.4),
  ('O=C(O)c1cc(O)c(O)c(O)c1', 'Measured concentration after storage', 393.9);

---

- assayName: Stability of QC samples of the analytes in rat plasma under storage conditions
- Format: physicochemical
- testContext: spiked 40 ng/mL, room temperature for 4 h, n = 6
- Method: Preparation of quality control (QC) samples with three concentrations (low, medium, and high) of 16, 160, and 3,200 ng/ml for ellagic acid; 1.6, 16, 320 ng/ml for protocatechuic acid, ethyl gallate and 1,2,3,4,6-O-pentagalloylglucose; 40, 400 and 8,000 ng/ml for chebulic acid, gallic acid, corilagin and chebulinic acid and 160, 1,600, 32000 ng/ml for chebulagic acid. Both QC samples and stock solutions were stored in a refrigerator at 4°C. […]
propertyLabel: Measured concentration after storage (ng/mL)

INSERT INTO measurements (compound, endpointvalue) VALUES
  ('O=C(O)C[C@@H]1C(=O)O[C@H]2[C@H](OC(=O)c3cc(O)c(O)c(O)c3)[C@@H](OC(=O)c3cc(O)c(O)c4c3[C@H]1[C@H](O)C(=O)O4)[C@H](OC(=O)c1cc(O)c(O)c(O)c1)O[C@@H]2COC(=O)c1cc(O)c(O)c(O)c1 [Chebulinic acid, chebulinic acid]', 36.8),
  ('O=C(O[C@@H]1O[C@@H]2COC(=O)c3cc(O)c(O)c(O)c3-c3c(cc(O)c(O)c3O)C(=O)O[C@H]([C@H]1O)[C@@H]2O)c1cc(O)c(O)c(O)c1 [Corilagin, corilagin]', 39.6),
  ('O=C(O)C[C@H](C(=O)O)[C@H]1c2c(cc(O)c(O)c2O)C(=O)O[C@@H]1C(=O)O [Chebulic acid, chebulic acid]', 39.9),
  ('O=C(O)c1cc(O)c(O)c(O)c1 [Gallic acid, gallic acid]', 35.5);

---

Tmax listing for selected compounds.
- assayName: Pharmacokinetic study in rats after oral administration of TC extracts (UPLC-MS/MS of plasma)
- testContext: male, Sprague-Dawley, rat, plasma, po, 10 g/kg
propertyLabel: Tmax (h)

INSERT INTO assay_data (compound, endpointvalue) VALUES
  ('O=C(O)c1ccc(O)c(O)c1 [Protocatechuic acid, protocatechuic acid]', 0.54),
  ('O=C(O[C@@H]1O[C@@H]2COC(=O)c3cc(O)c(O)c(O)c3-c3c(cc(O)c(O)c3O)C(=O)O[C@H]([C@H]1O)[C@@H]2O)c1cc(O)c(O)c(O)c1 [Corilagin, corilagin]', 1.67),
  ('CCOC(=O)c1cc(O)c(O)c(O)c1 [Ethyl gallate, ethyl gallate]', 0.63),
  ('O=C(O)C[C@@H]1C(=O)O[C@H]2[C@@H]3OC(=O)c4cc(O)c(O)c(O)c4-c4c(cc(O)c(O)c4O)C(=O)OC[C@H]2O[C@@H](OC(=O)c2cc(O)c(O)c(O)c2)[C@@H]3OC(=O)c2cc(O)c(O)c3c2[C@H]1[C@H](O)C(=O)O3 [Chebulagic acid, chebulagic acid]', 5.67),
  ('O=c1oc2c(O)c(O)cc3c(=O)oc4c(O)c(O)cc1c4c23 [Ellagic acid, ellagic acid]', 0.97),
  ('O=C(O)C[C@@H]1C(=O)O[C@H]2[C@H](OC(=O)c3cc(O)c(O)c(O)c3)[C@@H](OC(=O)c3cc(O)c(O)c4c3[C@H]1[C@H](O)C(=O)O4)[C@H](OC(=O)c1cc(O)c(O)c(O)c1)O[C@@H]2COC(=O)c1cc(O)c(O)c(O)c1 [Chebulinic acid, chebulinic acid]', 1.83);

---

Measured concentration after storage listing for selected molecules.
- assayName: Stability of QC samples of the analytes in rat plasma under storage conditions
- Format: physicochemical
- testContext: spiked 400 ng/mL, room temperature for 4 h, n = 6
- Procedure: Preparation of quality control (QC) samples with three concentrations (low, medium, and high) of 16, 160, and 3,200 ng/ml for ellagic acid; 1.6, 16, 320 ng/ml for protocatechuic acid, ethyl gallate and 1,2,3,4,6-O-pentagalloylglucose; 40, 400 and 8,000 ng/ml for chebulic acid, gallic acid, corilagin and chebulinic acid and 160, 1,600, 32000 ng/ml for chebulagic acid. Both QC samples and stock solutions were stored in a refrigerator at 4°C. […]
propertyLabel: Measured concentration after storage (ng/mL)

INSERT INTO results (molecule, endpointvalue) VALUES
  ('O=C(O)C[C@@H]1C(=O)O[C@H]2[C@H](OC(=O)c3cc(O)c(O)c(O)c3)[C@@H](OC(=O)c3cc(O)c(O)c4c3[C@H]1[C@H](O)C(=O)O4)[C@H](OC(=O)c1cc(O)c(O)c(O)c1)O[C@@H]2COC(=O)c1cc(O)c(O)c(O)c1 [Chebulinic acid, chebulinic acid]', 414.3),
  ('O=C(O[C@@H]1O[C@@H]2COC(=O)c3cc(O)c(O)c(O)c3-c3c(cc(O)c(O)c3O)C(=O)O[C@H]([C@H]1O)[C@@H]2O)c1cc(O)c(O)c(O)c1 [Corilagin, corilagin]', 398.2),
  ('O=C(O)c1cc(O)c(O)c(O)c1 [Gallic acid, gallic acid]', 385),
  ('O=C(O)C[C@H](C(=O)O)[C@H]1c2c(cc(O)c(O)c2O)C(=O)O[C@@H]1C(=O)O [Chebulic acid, chebulic acid]', 395.7);
